- System: fresh mouse hepatocytes
- assay remarks: Release of active metabolite in fresh mouse hepatocytes
- Assay type: in vitro ADME
- condition context: 10 μM
value type: MsH Cmax

INSERT INTO results (molecule, result_value) VALUES
  ('CC(C)OC(=O)[C@@H](C)NP(=O)(OC[C@H]1O[C@@H](n2ccc(=O)[nH]c2=O)[C@](C)(Cl)[C@@H]1O)Oc1ccccc1 (single isomer, unassigned; diastereomer 1) [Compound 40i Diastereomer 1]', '++++ (100 < ++++)'),
  ('CC(C)OC(=O)[C@H](C)NP(=O)(OC[C@H]1O[C@@H](n2ccc(=O)[nH]c2=O)[C@](C)(Cl)[C@@H]1O)Oc1ccccc1 (single isomer, unassigned) [Compound 40ii Diastereomer 2]', '+++ (50 < +++ ≤ 100)'),
  ('CC(C)OP1(=O)OC[C@H]2O[C@@H](n3ccc(=O)[nH]c3=O)[C@](C)(Cl)[C@@H]2O1 (single isomer, unassigned) [Compound 37 Diastereomer 2]', '++++ (100 < ++++)'),
  ('CC(C)OC(=O)[C@@H](C)NP(=O)(OC[C@H]1O[C@@H](n2ccc(=O)[nH]c2=O)[C@](C)(Cl)[C@@H]1O)Oc1ccccc1 (single isomer, unassigned; diastereomer 2) [Compound 40i Diastereomer 2]', '+++ (50 < +++ ≤ 100)');

----------
- assay remarks: Liver triphosphate pharmacokinetics after single oral dose in CD-1 mice;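 further: pmol·h/g liver normalized to a 1 µmol/kg dose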
- Assay type: in vivo
- Set-up: key: + ≤ 15; 15 < ++ ≤ 50; 50 < +++ ≤ 100; 100 < ++++; BLQ = below limit of quantitation
- condition context: single oral dose 10 mg/kg in PEG 200
value type: Ms Liver TP AUC

INSERT INTO results (compound, value_type, result_value) VALUES
  ('CCOc1nc(N)nc2c1ncn2[C@@H]1O[C@H](COP(=O)(N[C@@H](C)C(=O)OC(C)C)Oc2ccccc2)[C@@H](O)[C@@]1(C)Cl (single isomer, unassigned) [Compound 17ii Diastereomer 1]', 'Ms Liver TP AUC', 'BLQ'),
  ('C[C@@H](NP(=O)(OC[C@H]1O[C@@H](n2ccc(=O)[nH]c2=O)[C@](C)(Cl)[C@@H]1O)Oc1ccccc1)C(=O)OCc1ccccc1 (single isomer, unassigned) [Compound 205i Diastereomer 2]', 'Ms Liver TP AUC', '++++ (1500 < ++++)'),
  ('CC(C)OC(=O)[C@H](C)NP1(=O)OC[C@H]2O[C@@H](n3cnc4c(N)ncnc43)[C@](C)(Cl)[C@@H]2O1 (single isomer, unassigned; diastereomer 2) [Compound 77ii Diastereomer 2]', 'Ms Liver TP AUC', '++++ (1500 < ++++)');

----------
- Test system: Zluc cells
- assay remarks: Cytotoxicity evaluation, CellTiter-Blue Cell Viability Assay
- condition context: Zluc cells, CellTiter-Blue
value type: CC50

Below are worked cases with known answers.
INSERT INTO assay_data (molecule, value_type, result_value) VALUES
  ('CC(C)OC(=O)[C@H](C)NP(=O)(OC[C@H]1O[C@@H](n2ccc3c(N)ncnc32)[C@](C)(Cl)[C@@H]1O)Oc1ccccc1 (single isomer, unassigned) [Compound 208ii Diastereomer 2]', 'CC50', '> 50 µM'),
  ('CCCCOC(=O)[C@H](C)NP(=O)(OC[C@H]1O[C@@H](n2ccc(=O)[nH]c2=O)[C@](C)(Cl)[C@@H]1O)Oc1ccccc1 (single isomer, unassigned; diastereomer 1) [Compound 202ii Diastereomer 1]', 'CC50', '> 50 µM'),
  ('CC(C)OC(=O)[C@H](C)NP1(=O)OC[C@H]2O[C@@H](n3cnc4c(N)ncnc43)[C@](C)(Cl)[C@@H]2O1 (single isomer, unassigned; diastereoisomer 2) [Compound 77ii Diastereoisomer 2]', 'CC50', '> 50 µM');

Now, please, on to the next molecule.
What the record says about CC(C)(C)C(=O)SCCOP1(=O)OC[C@H]2O[C@@H](n3ccc(N)nc3=O)[C@](C)(Cl)[C@@H]2O1 (single isomer, unassigned) [Compound 61 Diastereomer 2] : CC50 is > 50 µM

Hello, the source for this data is patent US10513534B2, in case you need it.
